Tested on: CEM cells HIV-1 protection, formazan growth assay
Assay: NCI AIDS Antiviral Assay
Details: measured here: growth of uninfected CEM cells
pIC50: −log10 of the molar value. Where a SMILES comes first, the peptide text is derived from it.
Answer FALSE if pIC50 is under 5, and TRUE if it is 5 or more.

Worked set:
- molecule: "NCCN(CCN)/[N+]([O-])=N/O"
  classification: "FALSE"
- molecule: "CC1(C)OC2OC3C4COC(SSC56OCC(O5)C5OC7OC(C)(C)OC7C5O6)(O4)OC3C2O1 (stereo not given)"
  classification: "FALSE"
- molecule: "C=C1OC2OC(C)C(NC(=O)OCC(Cl)(Cl)Cl)C(OC(C)=O)C2O1 (stereo not given)"
  classification: "FALSE"
- molecule: "COc1cc2c(cc1OC)C1C(=O)c3c(O)cc4c(c3OC1CO2)C=CC(C)(C)O4 (stereo not given)"
  classification: "TRUE"
- molecule: "CC1(C)OC2C3CCC(C)(C3)C2(c2ccccc2)O1 (stereo not given)"
  classification: "FALSE"
- molecule: "CC(C)CC(N)C(=O)NC(CC(=O)O)C(=O)NC(CCCCN)C(=O)NC(C)C(=O)NC(CO)C(=O)NC(Cc1ccc(O)cc1)C(=O)NC(CO)C(=O)NC(C(=O)NC(CC(N)=O)C(=O)NC(Cc1cnc[nH]1)C(=O)NC(CC(C)C)C(=O)O)C(C)O (stereo not given) (H-LDKASYSTNHL-OH; configuration not given here)"
  classification: "FALSE"

Say whether CC1(C)CC(=O)C2=C(C1)OC1(CC2c2ccc(Cl)cc2)CC(c2ccc(Cl)cc2)C2=C(CC(C)(C)CC2=O)O1 (stereo not given) shows pIC50 of 5 or more. FALSE

Say whether COc1ccc(P2(=S)Oc3ccccc3-c3ccccc3O2)cc1 shows pIC50 of 5 or more. TRUE

Say whether Cc1cc(=O)oc2c(C)c3oc(CBr)cc3cc12 shows pIC50 of 5 or more. TRUE

---

System: CEM cells HIV-1 protection, formazan growth assay
Experiment: NCI AIDS Antiviral Assay
Conditions: measured here: growth of uninfected CEM cells
Kindly apply the following: Fulfilled if IC50 is less than 30 µM, Not fulfilled in every other case.

- compound: "Cc1[nH]c(=O)[nH]c(=O)c1/C=C/C(=O)NC(CO)CS(=O)Cc1ccccc1 (stereo unspecified)"
  classification: "Not fulfilled"
- compound: "CCCC/C=C(/CCCBr)[Si](C)(C)C"
  classification: "Not fulfilled"

In plain terms, does O=S(=O)(/N=C1/SC(=Nc2ccccc2)N(c2ccccc2)/C1=N/S(=O)(=O)c1ccccc1)c1ccccc1 come in under 30 µM for IC50? Fulfilled

In plain terms, does Cc1ccc(C2=Nn3c(nc4sc(C)c(C)c4c3=O)SC2)cc1 come in under 30 µM for IC50? Not fulfilled

In plain terms, does O=C(CC1(O)C(=O)Nc2c(Cl)cc(Cl)cc21)c1ccc([N+](=O)[O-])cc1 (stereo unspecified) come in under 30 µM for IC50? Not fulfilled

In plain terms, does O=C1/C(=C\c2cccc(Oc3ccccc3)c2)SC(c2ccccc2)N1c1ccccc1 (stereo unspecified) come in under 30 µM for IC50? Fulfilled

In plain terms, does CCCCN1C(=O)C(=O)N(c2ccccc2C(F)(F)F)C1=O come in under 30 µM for IC50? Not fulfilled

In plain terms, does CN(C)[C@@H]1C(=O)C(C(=O)NCNC(CO)(CO)CO)=C(O)[C@@]2(O)C(=O)C3=C(O)c4c(O)cccc4[C@@](C)(O)[C@H]3C[C@@H]12 come in under 30 µM for IC50? Not fulfilled

---

Test system: CEM cells HIV-1 protection, formazan growth assay
Test: NCI AIDS Antiviral Assay;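 active = compounds giving half or more protection of infected cells from virus-caused growth loss, again on retest; inactive = the rest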
Outcome (select one): active, inactive

Worked set:
- compound: "c1ccc2c(c1)CCCN1CCc3ccccc3C21 (centres undefined)"
  classification: "inactive"
- compound: "CC(/C=N\\NC(=S)N(C)C)=N/NC(=S)N(C)C"
  classification: "inactive"
- compound: "CCCCc1c2c(nc3c1CCCC3=O)C(=O)CCC2"
  classification: "inactive"
- compound: "CSc1c(C)n([O-])c2cc(Cl)c(Cl)cc2[n+]1=O"
  classification: "inactive"
- compound: "C=CCSCCCC#Cc1ccccc1C(=O)OC"
  classification: "inactive"

What outcome does the record of this test show for CSc1nnnc2ccccc12 ? inactive

What outcome does the record of this test show for O=C(O)/C=C\C(=O)NCCCNC(=O)/C=C\C(=O)O ? inactive

What outcome does the record of this test show for O=C(O)/C=C\C(=O)Nc1ccc(SSc2ccc(NC(=O)/C=C\C(=O)O)cc2)cc1 ? active

---

Catalogue of pIC50 readings, one per entry.
System: CEM cells HIV-1 protection, formazan growth assay
Assay: NCI AIDS Antiviral Assay
Details: measured here: growth of uninfected CEM cells
Scale: pIC50 equals -log10([C]), with [C] in mol/L.

- compound: "Cc1cc(=O)oc2cc(O)c(O)cc12"
  system tested: "CEM cells HIV-1 protection, formazan growth assay"
  pIC50: 4.56
- compound: "COc1ccc(/C=C2\\SC(=S)N(C=C3C(=O)NC(=S)NC3=O)C2=O)cc1OC"
  system tested: "CEM cells HIV-1 protection, formazan growth assay"
  pIC50: 4.53
- compound: "CC1=C2c3ccccc3N(C(=O)/C=C/C(=O)O)[C@H]2[C@H]2C(=O)OC(=O)[C@H]2C1"
  system tested: "CEM cells HIV-1 protection, formazan growth assay"
  pIC50: 3.82
- compound: "C=CCSCn1ncc2ccc([N+](=O)[O-])cc21"
  system tested: "CEM cells HIV-1 protection, formazan growth assay"
  pIC50: 4.47
- compound: "COc1ccc(C(=O)[O][Sn]([c]2ccccc2)([c]2ccccc2)[c]2ccccc2)c(OC)c1OC"
  system tested: "CEM cells HIV-1 protection, formazan growth assay"
  pIC50: 6.96
- compound: "N#Cc1c(NN)nc(NN)c(C#N)c1-c1ccccc1"
  system tested: "CEM cells HIV-1 protection, formazan growth assay"
  pIC50: 4.30
- compound: "Fc1ccc2c3c([nH]c2c1)CCN(Cc1ccccc1)C3"
  system tested: "CEM cells HIV-1 protection, formazan growth assay"
  pIC50: 4.42
- compound: "Nc1nc(Cl)c2[nH]c(Cl)nc2n1"
  system tested: "CEM cells HIV-1 protection, formazan growth assay"
  pIC50: 3.88
- compound: "O=Cc1ccccc1OCCCC[P+](c1ccccc1)(c1ccccc1)c1ccccc1"
  system tested: "CEM cells HIV-1 protection, formazan growth assay"
  pIC50: 5.55
- compound: "Cc1ccc(S(=O)(=O)Nn2c(S)c(C#N)c(-c3ccc(N(C)C)cc3)c(C#N)c2=O)cc1"
  system tested: "CEM cells HIV-1 protection, formazan growth assay"
  pIC50: 5.11

Moving on to the next compound.
Checklist item: pIC50 tested on CEM cells HIV-1 protection, formazan growth assay, entry NC1=NN(c2ccccc2)C(=O)C1C(=O)CCC(=O)Nc1cccc(C(F)(F)F)c1 (configuration not stated) , value? 3.39

---

System: CEM cells HIV-1 protection, formazan growth assay
Test: NCI AIDS Antiviral Assay
Catalogue of EC50 readings, one per entry.

The examples below pair each entry with its known result.
- compound: "CCOC(=O)CN=c1nc(SC)sc2c(C(=O)OCC)nc(Sc3ccccc3)n12"
  EC50: "> 60.3 µM"
- compound: "Cc1c2c(n(CCN(C)C)c1C)NN=C(C#N)S2(=O)=O"
  EC50: "> 200 µM"
- compound: "Cc1cc(C)c2c(=N)c3ccccc3n(CCCCCCCCn3c4ccccc4c(=N)c4c(C)cc(C)nc43)c2n1"
  EC50: "> 2 µM"
- compound: "COc1nc2[nH]c(C)cc(=O)c2c2ccccc12"
  EC50: "> 200 µM"
- compound: "NNC(=S)N/N=C(\\CCCC(=O)NCCc1ccccc1)CC(=O)c1ccccc1"
  EC50: "> 219 µM"

Report EC50 for Cc1cccc2c1CC1(Cc3c(C)cccc3C1=O)C2=O please. > 200 µM

Report EC50 for O=C(O)[C@@H]1CSC(c2cccc(F)c2)N1 (stereo not given in full) please. > 200 µM

Report EC50 for CC(=O)C(C(c1ccccc1)N1CCCc2ccccc21)N1CCOCC1 (stereo not given) please. > 200 µM

---

Catalogue of EC50 readings, one per entry.
Test system: CEM cells HIV-1 protection, formazan growth assay
Assay: NCI AIDS Antiviral Assay

- compound: "CCOC(=O)[C@@]12C(C)=CC(=O)O[C@]1(C)C1C(=O)NC(=O)C12 (stereo partly drawn)"
  system tested: "CEM cells HIV-1 protection, formazan growth assay"
  EC50: "> 851 µM"
- compound: "CCCCCC=C(c1cc(C(=O)OC)c(OC)c(C(F)(F)F)c1)c1cc(C(=O)OC)c(OC)c(C(F)(F)F)c1"
  system tested: "CEM cells HIV-1 protection, formazan growth assay"
  EC50: "> 200 µM"

Report EC50 for Nc1ccc(Cl)cc1C(=O)N1CCN(c2ccc([N+](=O)[O-])cn2)CC1 please. > 132 µM

Report EC50 for O=C1NC(=O)c2c3ccc(c21)CCc1ccc(c2c1C(=O)NC2=O)CC3 please. > 15.1 µM

Report EC50 for S=C1NC2=C(CSC/C2=C\c2cccc(Br)c2)C(c2cccc(Br)c2)N1 (stereo not drawn) please. > 200 µM

Report EC50 for COc1cccc(C2CO2)c1 (stereo not drawn) please. > 200 µM
